# target_or_system: Induced myeloid leukemia cell differentiation protein Mcl-1 (Homo sapiens) (UniProt Q07820)
# Sequence (Q07820 whole entry, looked up): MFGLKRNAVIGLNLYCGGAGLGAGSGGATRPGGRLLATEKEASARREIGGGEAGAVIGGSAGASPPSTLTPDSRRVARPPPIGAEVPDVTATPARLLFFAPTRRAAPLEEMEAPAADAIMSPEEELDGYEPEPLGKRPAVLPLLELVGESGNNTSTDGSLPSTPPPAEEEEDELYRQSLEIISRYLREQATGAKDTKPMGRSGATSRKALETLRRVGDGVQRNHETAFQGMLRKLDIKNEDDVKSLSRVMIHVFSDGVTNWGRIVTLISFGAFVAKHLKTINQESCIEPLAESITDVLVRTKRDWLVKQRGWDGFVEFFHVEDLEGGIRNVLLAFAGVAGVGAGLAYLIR
# method_notes: blockers of Bid binding to Mcl-1 – biochemical, TR-FRET, dose response (AID 1418)
# run_conditions: Mcl-1/Bid peptide binding, TR-FRET (europium/Dy647), 2 hr
Active and inactive are the calls of the source. How the calls were made is not given here.
The reply should name one outcome from active, inactive

Reference set (3 entries):
molecule	class
O=C(N/N=C/c1ccc([N+](=O)[O-])o1)c1cc2c(ccc3ccccc32)o1	active
COCC(O)CSc1nc(C)[nH]c1[N+](=O)[O-] (stereo unspecified)	inactive
COc1ccc(OC)c(Nc2nc(-c3cccc([N+](=O)[O-])c3)nc3ccccc23)c1	inactive

Prompt line: What outcome does the record of this test show for CC(NC(=O)NC1CCCCC1)C(c1cccs1)N1CCN(c2ccccc2)CC1 (stereo unspecified) ?
Response line: inactive

Prompt line: // next record `NNc1nc(-c2ccccc2)cs1`
Response line: active

Prompt line: // next record `O=C(CCS(=O)(=O)c1ccc(Br)s1)NC1CCCCCC1`
Response line: inactive

Prompt line: // next record `Nc1ccc(C(=O)N/N=C\c2cc(N=Nc3cccc4ccccc34)ccc2O)cc1`
Response line: active

Prompt line: // next record CC1(C)CC(=O)C2=C(C1)OC(N)=C(C#N)C2c1cccc(OC(=O)c2ccco2)c1 (stereo unspecified)
Response line: inactive

Prompt line: // next record `CCc1cc(=O)oc2cc3occ(-c4ccc(OC)c(F)c4)c3cc12`
Response line: inactive

Prompt line: // next record `O=C(Nc1cnn(C23CC4CC(CC(C4)C2)C3)c1)c1cnn2c(C(F)(F)F)cc(-c3ccco3)nc12`
Response line: active
